- System: A549
- TEST_NAME: Antiproliferative activity against human A549 cells after 72 hrs by MTT assay
- Type: functional, cell-based
- CONDITION_CONTEXT: A549, 72 h
pIC50: −log10 of the molar value.

{"MOL_SMILES": "NC(=O)c1cc(-c2[nH]c3ccccc3c(=O)c2O)ccc1N1CCCCC1", "TEST_TARGET": "A549", "REL": "=", "pIC50": 5.00}
{"MOL_SMILES": "O=C(O)c1cc(-c2[nH]c3ccccc3c(=O)c2O)ccc1N1CCCCC1", "TEST_TARGET": "A549", "REL": "=", "pIC50": 4.30}
{"MOL_SMILES": "NC(=O)c1cc(-c2[nH]c3cc(C(=O)NCc4ccccc4)ccc3c(=O)c2O)ccc1N1CCCCC1", "TEST_TARGET": "A549", "REL": "=", "pIC50": 5.42}
{"MOL_SMILES": "NC(=O)c1cc(-c2[nH]c3ccccc3c(=O)c2O)ccc1N1CCOCC1", "TEST_TARGET": "A549", "REL": "=", "pIC50": 4.35}
{"MOL_SMILES": "CCCCCNC(=O)c1ccc2c(=O)c(O)c(-c3ccc(N4CCCCC4)c(C(N)=O)c3)[nH]c2c1", "TEST_TARGET": "A549", "REL": "=", "pIC50": 5.72}
{"MOL_SMILES": "O=c1c(O)c(-c2ccccc2)[nH]c2ccccc12", "TEST_TARGET": "A549", "REL": "<", "pIC50": 4.30}
{"MOL_SMILES": "O=C(O)c1cc(-c2[nH]c3ccccc3c(=O)c2O)ccc1N1CCOCC1", "TEST_TARGET": "A549", "REL": "=", "pIC50": 4.30}

====

- System: K562
- TEST_NAME: Antiproliferative activity against human K562 cells after 72 hrs by MTT assay
- Type: functional, cell-based
- CONDITION_CONTEXT: K562, 72 h
pIC50: −log10 of the molar value.
Kind request: treat 5 as inclusive, so pIC50 at 5 or higher is y, anything lower is n.

{"MOL_SMILES": "O=C(O)c1cc(-c2[nH]c3ccccc3c(=O)c2O)ccc1N1CCOCC1", "QUALITATIVE_LABEL": "n"}
{"MOL_SMILES": "O=c1c(O)c(-c2ccccc2)[nH]c2ccccc12", "QUALITATIVE_LABEL": "n"}
{"MOL_SMILES": "O=C(O)c1cc(-c2[nH]c3ccccc3c(=O)c2O)ccc1N1CCCCC1", "QUALITATIVE_LABEL": "n"}
{"MOL_SMILES": "CCCCCNC(=O)c1ccc2c(=O)c(O)c(-c3ccc(N4CCCCC4)c(C(N)=O)c3)[nH]c2c1", "QUALITATIVE_LABEL": "y"}
{"MOL_SMILES": "NC(=O)c1cc(-c2[nH]c3ccccc3c(=O)c2O)ccc1N1CCCCC1", "QUALITATIVE_LABEL": "y"}
{"MOL_SMILES": "NC(=O)c1cc(-c2[nH]c3ccccc3c(=O)c2O)ccc1N1CCOCC1", "QUALITATIVE_LABEL": "n"}

====

Below, each entry is listed with its recorded Ka.
- TEST_TARGET: Elongation factor 1-alpha 1 (Homo sapiens) (UniProt P68104)
- Sequence (P68104 whole entry): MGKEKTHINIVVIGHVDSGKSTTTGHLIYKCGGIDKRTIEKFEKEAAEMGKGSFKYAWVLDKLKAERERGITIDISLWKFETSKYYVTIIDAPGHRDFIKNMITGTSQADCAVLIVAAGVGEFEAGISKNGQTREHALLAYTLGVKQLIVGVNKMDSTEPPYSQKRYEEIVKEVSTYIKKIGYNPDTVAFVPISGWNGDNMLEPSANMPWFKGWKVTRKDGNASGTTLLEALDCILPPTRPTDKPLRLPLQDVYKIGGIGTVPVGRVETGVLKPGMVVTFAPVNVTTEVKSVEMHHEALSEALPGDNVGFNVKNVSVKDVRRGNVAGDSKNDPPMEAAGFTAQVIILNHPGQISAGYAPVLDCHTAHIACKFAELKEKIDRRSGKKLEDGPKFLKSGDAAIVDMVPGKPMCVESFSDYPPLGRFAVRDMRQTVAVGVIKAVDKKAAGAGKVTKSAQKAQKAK
- TEST_NAME: Binding affinity to recombinant human eEF1A1 expressed in HEK293 cells by ITC

{"MOL_SMILES": "O=C(O)c1cc(-c2[nH]c3ccccc3c(=O)c2O)ccc1N1CCCCC1", "Ka": "2.54 ×10⁶ /M"}
{"MOL_SMILES": "O=C(O)/C=C/c1nn(Cc2ccc(Cl)cc2Cl)c2cc(C(F)(F)F)ccc12", "Ka": "1.27 ×10⁷ /M"}
{"MOL_SMILES": "NC(=O)c1cc(-c2[nH]c3cc(C(=O)NCc4ccccc4)ccc3c(=O)c2O)ccc1N1CCCCC1", "Ka": "1.81 ×10⁷ /M"}
{"MOL_SMILES": "NC(=O)c1cc(-c2[nH]c3ccccc3c(=O)c2O)ccc1N1CCOCC1", "Ka": "6.8 ×10⁶ /M"}
{"MOL_SMILES": "O=C(O)c1cc(-c2[nH]c3ccccc3c(=O)c2O)ccc1N1CCOCC1", "Ka": "1.03 ×10⁷ /M"}
{"MOL_SMILES": "NC(=O)c1cc(-c2[nH]c3ccccc3c(=O)c2O)ccc1N1CCCCC1", "Ka": "2.9 ×10⁶ /M"}
{"MOL_SMILES": "CCCCCNC(=O)c1ccc2c(=O)c(O)c(-c3ccc(N4CCCCC4)c(C(N)=O)c3)[nH]c2c1", "Ka": "5.3 ×10⁶ /M"}
